biological target: recombinant human CCL20 (R&D Systems, #360-MP-025/CF) (human, UniProt P78556 27-96); assay: cell-based or functional assay
Sequence (P78556 other isoform, or with tags, fused parts or gaps limits assumed): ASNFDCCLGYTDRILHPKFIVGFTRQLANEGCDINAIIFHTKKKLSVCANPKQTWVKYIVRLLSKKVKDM
measure: IC90 of chemotaxis inhibition (nM)
Write the number in nM without appending the unit.

Worked cases, IC90 of chemotaxis inhibition given:
humanized anti-human CCL20 antibody 36LK3/42HKK3 (antibody, human IgG1, kappa, V domains shown) VH: QVQLVQSGAEVKKPGASVKVSCKASGYTFTSYWMHWVRQAPGQGLEWMGLIDPSDKYTNYNQKFKGKATLTVDTSTSTAYMELSSLRSEDTAVYYCTRGNYGVDYGMDYWGQGTLVTVSS VL: DIQMTQSPSSLSASVGDRVTITCGASENIYGALNWYQRKPGKAPKLLIYGATNLADGVPSRFSGSGSGRDYTLTISSLQPEDFATYYCQNVLITPYTFGQGTKLEIKR = 5.65
36LC3/36HC3 (antibody, human IgG1, kappa, V domains shown) VH: QVQLVQSGAEVKKPGASVKVSCKASGYTFTNYWMHWVKQAPGQGLEWIGVIDPSDSYTTYNQKFKGKATMTRDTSTSTVYMELSSLRSEDTAVYYCTRGNYGVDYAMDYWGQGTSVTVSS VL: DIQMTQSPSSLSASVGDRVTITCRASENIYGALNWYQQKPGKAPKLLIYGATNLADGVPSRFSGSGSGRQYSLTISSLQPEDFATYYCQNVLITPYTFGGGTKLEIKR = 6.34

// query Look up IC90 of chemotaxis inhibition: humanized anti-human CCL20 antibody 36LK3/42HKK1 (antibody, human IgG1, kappa, V domains shown) VH: QVQLVQSGAEVKKPGASVKVSCKASGYTFTSYWMHWVRQAPGQGLEWMGLIDPSDKYTNYNQKFKGRVTMTRDTSTSTVYMELSSLRSEDTAVYYCARGNYGVDYGMDYWGQGTLVTVSS VL: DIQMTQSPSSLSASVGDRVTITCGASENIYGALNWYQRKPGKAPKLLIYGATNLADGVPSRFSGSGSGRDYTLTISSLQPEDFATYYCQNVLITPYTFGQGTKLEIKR
// result 4.86
